# Tested on: Pseudomonas aeruginosa
# Test description: Activity at Pseudomonas aeruginosa PDC-3 by spectrophotometer
Readout label: kcat

molecular_string=C[C@@H](O)[C@H]1C(=O)N2C(C(=O)O)=C(SCCNC=N)C[C@H]12 readout_label=kcat result="0.1 s⁻¹"
molecular_string=CO/N=C(\C(=O)N[C@@H]1C(=O)N2C(C(=O)O)=C(COC(C)=O)CS[C@H]12)c1csc(N)n1 readout_label=kcat result="0.15 s⁻¹"
molecular_string=CO/N=C(\C(=O)N[C@@H]1C(=O)N2C(C(=O)[O-])=C(C[N+]3(C)CCCC3)CS[C@H]12)c1csc(N)n1 readout_label=kcat result="2 s⁻¹"
molecular_string=CC(C)(O/N=C(\C(=O)N[C@@H]1C(=O)N2C(C(=O)[O-])=C(C[n+]3ccccc3)CS[C@H]12)c1csc(N)n1)C(=O)O readout_label=kcat result="0.02 s⁻¹"
molecular_string=CC1(C)S[C@@H]2[C@H](NC(=O)Cc3ccccc3)C(=O)N2[C@H]1C(=O)O readout_label=kcat result="35 s⁻¹"
molecular_string=CCN1CCN(C(=O)N[C@@H](C(=O)N[C@@H]2C(=O)N3[C@@H]2SC(C)(C)[C@@H]3C(=O)O)c2ccccc2)C(=O)C1=O readout_label=kcat result="5 s⁻¹"
